biological target: CAAX prenyl protease 2 (Saccharomyces cerevisiae S288c, UniProt Q03530); format: biochemical
Sequence (Q03530 whole entry): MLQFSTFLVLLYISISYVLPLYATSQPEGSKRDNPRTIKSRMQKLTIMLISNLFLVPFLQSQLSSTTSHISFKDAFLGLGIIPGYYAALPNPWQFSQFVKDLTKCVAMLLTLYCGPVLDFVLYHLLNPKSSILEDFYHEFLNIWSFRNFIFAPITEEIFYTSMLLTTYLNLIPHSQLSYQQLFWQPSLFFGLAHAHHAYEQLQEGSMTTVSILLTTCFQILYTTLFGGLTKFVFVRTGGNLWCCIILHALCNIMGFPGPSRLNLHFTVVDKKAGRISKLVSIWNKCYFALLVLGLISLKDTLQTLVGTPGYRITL
Active and inactive are the calls of the source.

[
  {
    "TEST SMILES": "Cc1cc(C)n(Cc2ccc(NC(=O)c3ccc(COc4ccccc4Br)cc3)cc2)n1",
    "SUBJECT OF TEST": "CAAX prenyl protease 2 (Saccharomyces cerevisiae S288c, UniProt Q03530)",
    "AC50": "1.08 µM (active)"
  },
  {
    "TEST SMILES": "COC(=O)c1ccccc1NC(=O)NCc1cccnc1",
    "SUBJECT OF TEST": "CAAX prenyl protease 2 (Saccharomyces cerevisiae S288c, UniProt Q03530)",
    "AC50": "26.1 µM (active)"
  },
  {
    "TEST SMILES": "CN(C)CCN(C(=O)c1ccc2ccccc2c1)c1nc2ccc(F)cc2s1",
    "SUBJECT OF TEST": "CAAX prenyl protease 2 (Saccharomyces cerevisiae S288c, UniProt Q03530)",
    "AC50": "6.44 µM (active)"
  },
  {
    "TEST SMILES": "CCn1cc(/C=C(\\NC(=O)c2ccccc2)C(=O)N2CCOCC2)c2ccccc21",
    "SUBJECT OF TEST": "CAAX prenyl protease 2 (Saccharomyces cerevisiae S288c, UniProt Q03530)",
    "AC50": "5.85 µM (active)"
  },
  {
    "TEST SMILES": "NC(=O)CCCn1c(C(=O)c2cc(Cl)c(N)c(Cl)c2)c2ccc(C(F)(F)F)cc2[n+]1[O-]",
    "SUBJECT OF TEST": "CAAX prenyl protease 2 (Saccharomyces cerevisiae S288c, UniProt Q03530)",
    "AC50": "3.5 µM (active)"
  }
]

// data source = ChEMBL document CHEMBL1201862
